Would you kindly list EC50 for each of these compounds?
Tested on: T-47D
Experiment: Caspase cascade activation in T-47D solid tumor cells (fluorogenic N-(Ac-DEVD)-N'-ethoxycarbonyl-R110 substrate)
Assay type: cell-based, Human
Details: Homo sapiens, T47D; T-47D (24 hr); read-out: Caspase Potency EC50
Unit nM implied. Number only.

Give T-47D EC50 for the following compound: `CC(=O)N(C)c1nc(N(C)c2ccc(N(C)C)cc2)c2ccccc2n1`
14

Give T-47D EC50 for the following compound: `COc1ccc(N(C)c2nc(C)nc3ccc(NC(C)=O)cc23)cc1`
796

Give T-47D EC50 for the following compound: `CNc1ccc(N(C)c2nc(C)nc3ccccc23)cc1`
18

Give T-47D EC50 for the following compound: `COc1ccc(N(C)c2nc(N(C)C(C)=O)nc3ccccc23)cc1`
7

Give T-47D EC50 for the following compound: `Cc1nc(N(C)c2ccc(N(C)C)nc2)c2ccccc2n1`
14

Give T-47D EC50 for the following compound: `Cc1nc(N(C)c2ccc(N(C)C)cc2)c2cc([N+](=O)[O-])ccc2n1`
979

Give T-47D EC50 for the following compound: `COc1ccc(N(C)c2nc(C)nc3ccc(N(C)C(C)=O)cc23)cc1`
290

Give T-47D EC50 for the following compound: `COC(=O)N(C)c1ccc(N(C)c2nc(C)nc3ccccc23)cc1`
558

Give T-47D EC50 for the following compound: `COc1ccc(N(C)c2nc(NCc3ccccc3)nc3ccccc23)cc1`
75

Give T-47D EC50 for the following compound: `Cc1nc(N(C)c2ccc(N(C)C)cc2)c2cc(N)ccc2n1`
33

Give T-47D EC50 for the following compound: `COc1ccc(N(C)c2nc(N(C)C)nc3ccc(N)cc23)cc1`
221

Give T-47D EC50 for the following compound: `COc1ccc(N(C)c2nc(N(C)C)nc3ccc([N+](=O)[O-])cc23)cc1`
2360

Give T-47D EC50 for the following compound: `CSc1ccc(N(C)c2nc(C)nc3ccccc23)cc1`
4

Give T-47D EC50 for the following compound: `COc1ccc(N(C)c2nc(C)nc3ccc([N+](=O)[O-])cc23)cc1OC`
1870

* * *

Tested on: T-47D
Experiment: Caspase cascade activation in T-47D solid tumor cells (fluorogenic N-(Ac-DEVD)-N'-ethoxycarbonyl-R110 substrate)
Assay type: cell-based, Human
Conditions: Homo sapiens, T47D; T-47D (24 hr); read-out: Caspase Potency EC50
Please respond with class 1 when measured EC50 is strictly beneath 200 nM, and with class 0 in all other cases.

Consider `Cc1nc(Nc2ccc(N(C)C)cc2)c2ccccc2n1` . Does its EC50 lie strictly below 200 nM?
class 0

Consider `COc1ccc(N(C)c2nc(C)nc3ccccc23)cc1OC` . Does its EC50 lie strictly below 200 nM?
class 1

Consider `CNc1nc(N(C)c2ccc(N(C)C)cc2)c2ccccc2n1` . Does its EC50 lie strictly below 200 nM?
class 1

Consider `COc1ccc(N(C)c2nc(Cl)nc3ccc([N+](=O)[O-])cc23)cc1` . Does its EC50 lie strictly below 200 nM?
class 0

Consider `CN(C)c1ccc(N(C)c2nc(Cl)nc3ccccc23)cc1` . Does its EC50 lie strictly below 200 nM?
class 1

Consider `COC(=O)N(C)c1nc(N(C)c2ccc(OC)cc2)c2ccccc2n1` . Does its EC50 lie strictly below 200 nM?
class 1

Consider `CC(=O)N(C)c1ccc(N(C)c2nc(C)nc3ccccc23)cc1` . Does its EC50 lie strictly below 200 nM?
class 0

Consider `COc1cc(Nc2nc(C)nc3ccccc23)cc(OC)c1OC` . Does its EC50 lie strictly below 200 nM?
class 0

Consider `COc1ccc(Nc2nc(C)nc3ccccc23)cc1OC` . Does its EC50 lie strictly below 200 nM?
class 0

Consider `COc1ccc(CNc2nc(N(C)c3ccc(OC)cc3)c3ccccc3n2)cc1` . Does its EC50 lie strictly below 200 nM?
class 0

Consider `COc1ccc(N(C)c2nc(C)nc3ccc(N(C)C)cc23)cc1` . Does its EC50 lie strictly below 200 nM?
class 0

Consider `COC(=O)Nc1ccc(N(C)c2nc(C)nc3ccccc23)cc1` . Does its EC50 lie strictly below 200 nM?
class 1

Consider `CSc1ccc(Nc2nc(C)nc3ccccc23)cc1` . Does its EC50 lie strictly below 200 nM?
class 0

Consider `COC(=O)Nc1ccc2nc(C)nc(N(C)c3ccc(OC)cc3)c2c1` . Does its EC50 lie strictly below 200 nM?
class 0

Consider `CC(=O)Nc1ccc(N(C)c2nc(C)nc3ccccc23)cc1` . Does its EC50 lie strictly below 200 nM?
class 1

Consider `COc1ccc(N(C)c2nc(NN)nc3ccccc23)cc1` . Does its EC50 lie strictly below 200 nM?
class 1

Consider `COc1ccc(N(C)c2nc(NC(C)=O)nc3ccccc23)cc1` . Does its EC50 lie strictly below 200 nM?
class 1

Consider `Cc1nc(N(C)c2ccc(NC(N)=O)cc2)c2ccccc2n1` . Does its EC50 lie strictly below 200 nM?
class 1

Consider `CNc1nc(N(C)c2ccc(OC)cc2)c2cc([N+](=O)[O-])ccc2n1` . Does its EC50 lie strictly below 200 nM?
class 0

Consider `CNc1nc(N(C)c2ccc(OC)cc2)c2cc(N)ccc2n1` . Does its EC50 lie strictly below 200 nM?
class 0

Value source: patent US7989462B2
